These data points were gathered from patent US20240209086A1.

Target: T1, canine CD20 on cells (HEK293, MDCK II, CLBL-1 or native B cells) (canine, UniProt Q3C2E2 1-297)
T1 construct: also called dCD20; cCD20
T1 chain: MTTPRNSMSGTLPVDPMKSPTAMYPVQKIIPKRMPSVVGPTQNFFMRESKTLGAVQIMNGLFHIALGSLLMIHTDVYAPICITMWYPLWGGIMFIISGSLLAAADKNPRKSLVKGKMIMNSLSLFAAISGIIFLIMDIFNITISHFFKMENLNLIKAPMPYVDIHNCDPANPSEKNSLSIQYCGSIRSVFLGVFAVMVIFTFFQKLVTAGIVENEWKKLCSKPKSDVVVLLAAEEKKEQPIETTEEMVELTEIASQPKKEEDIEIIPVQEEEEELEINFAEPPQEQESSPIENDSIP
Test: flow cytometry, canine CD20 HEK293 cells, 10 µg/ml, FITC anti-canine IgG

# binder, binding result
data = [
    ("PMX243 (monospecific anti-canine CD20, canine IgG-B, lambda C5) (antibody, V domains shown) VH: EVQLVESGGDLVKPGGSLRLSCVASGFTFSRYHMSWVRQAPGKGLQWVAYINSGGSNTDYTDAVKGRFTISRDNAKNTLYLQMNSLRAEDTAVYYCSSLDYWGQGTLVTVSS VL: SYVLTQLPSKNVTLKQPAHITCGGDNIGSKSVHWYQQKLGQAPVLIIYYDRRRPTGIPERFSGANSGNTATLTISGALAEDEADYYCQVWDRSGNVFGGGTHLTVLG", "binds"),
    ("PMX254 (monospecific anti-canine CD20, canine IgG-B, lambda C5) (antibody, V domains shown) VH: EVQLVESGGDLVKPGGSLRLSCVASGFTFSRYHMSWIRQAPGKGLQWVAFIDSDGSGTRYADAVKGRFTFSRDNAKNTLYLQMSSLRAEDTAVYYCTSLEFWGQGTLVTVSS VL: SYVLTQLPSKNVTLKQPAHITCGGDNIGSKSVHWYQQKLGQAPVLIIYYDSSRPTGIPERFSGANSGNTATLTISGALAEDEADYYCQVWDSSANVFGGGTHLTVLG", "binds"),
    ("PMX245 (monospecific anti-canine CD20, canine IgG-B, lambda C5) (antibody, V domains shown) VH: EVQLVESGGDLVKPGGSLRLSCVASGLTFSRYHMSWVRQAPGKGLQWVAYINSGGSSTDYADGVKGRFTISRDNAKNTLYLQMNSLRAEDTAVYYCTSLEDWGQGTLVTVSS VL: SYVLTQLPSKNVTLKQPAHITCGGDNIGSKSVHWYQQKLGQAPVLIIYYDSSRPTGIPERFSGANSGNTATLTISGALAEDEADYYCQVWDSSVNVFGGGTHLTVLG", "binds"),
]
